# credit: the supplement of paper PMC10567573

B1: YPEL3 (parent)
chain: SKPKTFQAYLDDCHRRYSCAHCRA

Variants of: B1
protocol-description: protein stability index of a GFP-peptide fusion (GPS, HEK-293T) (PSI 1-6); higher = more stable;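 note: lentivirally expressed fusions sorted by FACS into six bins by GFP to DsRed ratio, PSI derived from sequencing read proportions per bin multiplied by bin number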
assay-setup: c terminus: a fixed tail appended
Kind request: treat 2 as inclusive, so protein stability index at 2 or higher is Y, anything lower is N.

> print(dat)
   variant.string  category.label
1            H21S               Y
2            C19D               Y
3             S1G               Y

Ask | Determine whether this variant has protein stability index no lower than 2: `A8S`
Reply | N

Ask | Determine whether this variant has protein stability index no lower than 2: `Q7K`
Reply | Y

Ask | Determine whether this variant has protein stability index no lower than 2: `P3T`
Reply | N

Ask | Is it the case that `D12R` has protein stability index reaching or exceeding 2?
Reply | Y

Ask | Check this variant for protein stability index at or above 2: `Y9K`
Reply | N

Ask | Given the entry `P3N` , answer whether its protein stability index meets or surpasses 2.
Reply | Y
